Hello, the source for this data is patent US20250152746A1, in case you need it.

test system: PCSK9 gene; test: PCSK9 gRNA/SpCas9 editing in primary cynomolgus hepatocytes (Tables 2, 22); format: cell-based, cynomolgus monkey; settings: 500 ng/RNA/mL; SpCas9 mRNA MS002 1:1 by weight
In the oligonucleotide strings, read from the 5' end, every base follows the letter of its sugar. An asterisk marks phosphorothioate; unmarked linkages are phosphodiester. Other units and linkages are bracketed, terminal groups are in braces. A string of capitals states the bases alone. m = 2'-O-methyl; r = 2'-OH (RNA)
Hi there, I'd appreciate the recorded Cyno Primary Hepatocyte Editing % 500 for every entry that follows.
Give bare numbers, in %.

Please review the entries below; each comes with its answer.
molecule	resultUnit	Cyno Primary Hepatocyte Editing % 500
GA207: PCSK9 gRNA; protospacer GGAAATCGAGGGCAGGGTCA (SEQ ID NO: 201) (nucleic acid, sugars from the 5' end m3 r94 m3, linkages s3 o93 s3 (s phosphorothioate, o phosphodiester), T or U not given here) guide: GGAAAUCGAGGGCAGGGUCAGUUUUAGAGCUAGAAAUAGCAAGUUAAAAUAAGGCUAGUCCGUUAUCAACUUGAAAAAGUGGCACCGAGUCGGUGCUUUU	%	2.72
GA203: PCSK9 gRNA; protospacer TGACCCTGCCCTCGATTTCC (SEQ ID NO: 197) (nucleic acid, sugars from the 5' end m3 r94 m3, linkages s3 o93 s3 (s phosphorothioate, o phosphodiester), T or U not given here) guide: UGACCCUGCCCUCGAUUUCCGUUUUAGAGCUAGAAAUAGCAAGUUAAAAUAAGGCUAGUCCGUUAUCAACUUGAAAAAGUGGCACCGAGUCGGUGCUUUU	%	10.49
GA202: PCSK9 gRNA; protospacer AAGCGGGTCCCGTCCTCCTC (SEQ ID NO: 196) (nucleic acid, sugars from the 5' end m3 r94 m3, linkages s3 o93 s3 (s phosphorothioate, o phosphodiester), T or U not given here) guide: AAGCGGGUCCCGUCCUCCUCGUUUUAGAGCUAGAAAUAGCAAGUUAAAAUAAGGCUAGUCCGUUAUCAACUUGAAAAAGUGGCACCGAGUCGGUGCUUUU	%	8.91

Below is a list of molecules. For each, state its recorded Cyno Primary Hepatocyte Editing % 500.
1. GA212: PCSK9 gRNA; protospacer CGGGATGCCGGCGTGGCCAA (SEQ ID NO: 206) (nucleic acid, sugars from the 5' end m3 r94 m3, linkages s3 o93 s3 (s phosphorothioate, o phosphodiester), T or U not given here) guide: CGGGAUGCCGGCGUGGCCAAGUUUUAGAGCUAGAAAUAGCAAGUUAAAAUAAGGCUAGUCCGUUAUCAACUUGAAAAAGUGGCACCGAGUCGGUGCUUUU
2. GA224: PCSK9 gRNA; protospacer GGCCGCTGACCACCCCTGCC (SEQ ID NO: 218) (nucleic acid, sugars from the 5' end m3 r94 m3, linkages s3 o93 s3 (s phosphorothioate, o phosphodiester), T or U not given here) guide: GGCCGCUGACCACCCCUGCCGUUUUAGAGCUAGAAAUAGCAAGUUAAAAUAAGGCUAGUCCGUUAUCAACUUGAAAAAGUGGCACCGAGUCGGUGCUUUU
3. GA191: PCSK9 gRNA; protospacer GCCCCATGTCGACTACATCG (SEQ ID NO: 185) (nucleic acid) guide: mG*mC*mC*rCrCrArUrGrUrCrGrArCrUrArCrArUrCrGrGrUrUrUrUrArGrArGrCrUrArGrArArArUrArGrCrArArGrUrUrArArArArUrArArGrGrCrUrArGrUrCrCrGrUrUrArUrCrArArCrUrUrGrArArArArArGrUrGrGrCrArCrCrGrArGrUrCrGrGrUrGrCrU*mU*mU*mU
4. GA160: PCSK9 gRNA; protospacer GCCTTGCGTTCCGAGGAGGA (SEQ ID NO: 154) (nucleic acid, sugars from the 5' end m3 r94 m3, linkages s3 o93 s3 (s phosphorothioate, o phosphodiester), T or U not given here) guide: GCCUUGCGUUCCGAGGAGGAGUUUUAGAGCUAGAAAUAGCAAGUUAAAAUAAGGCUAGUCCGUUAUCAACUUGAAAAAGUGGCACCGAGUCGGUGCUUUU
5. GA193: PCSK9 gRNA; protospacer GGGGCTGGTATTCATCCGCC (SEQ ID NO: 187) (nucleic acid, sugars from the 5' end m3 r94 m3, linkages s3 o93 s3 (s phosphorothioate, o phosphodiester), T or U not given here) guide: GGGGCUGGUAUUCAUCCGCCGUUUUAGAGCUAGAAAUAGCAAGUUAAAAUAAGGCUAGUCCGUUAUCAACUUGAAAAAGUGGCACCGAGUCGGUGCUUUU
6. GA244: PCSK9 gRNA; protospacer TTCCGAATAAACTCCAGGCC (SEQ ID NO: 237) (nucleic acid, sugars from the 5' end m3 r94 m3, linkages s3 o93 s3 (s phosphorothioate, o phosphodiester), T or U not given here) guide: UUCCGAAUAAACUCCAGGCCGUUUUAGAGCUAGAAAUAGCAAGUUAAAAUAAGGCUAGUCCGUUAUCAACUUGAAAAAGUGGCACCGAGUCGGUGCUUUU
7. GA211: PCSK9 gRNA; protospacer TGCGCGTGCTCAACTGCCAA (SEQ ID NO: 205) (nucleic acid, sugars from the 5' end m3 r94 m3, linkages s3 o93 s3 (s phosphorothioate, o phosphodiester), T or U not given here) guide: UGCGCGUGCUCAACUGCCAAGUUUUAGAGCUAGAAAUAGCAAGUUAAAAUAAGGCUAGUCCGUUAUCAACUUGAAAAAGUGGCACCGAGUCGGUGCUUUU

OUT:
1. 16.53
2. 12.34
3. 26.79
4. 6.60
5. 32.02
6. 7.89
7. 8.3

IN: If you can, please state the reported Cyno Primary Hepatocyte Editing % 500 value of GA199: PCSK9 gRNA; protospacer GAAGCGGGTCCCGTCCTCCT (SEQ ID NO: 193) (nucleic acid, sugars from the 5' end m3 r94 m3, linkages s3 o93 s3 (s phosphorothioate, o phosphodiester), T or U not given here) guide: GAAGCGGGUCCCGUCCUCCUGUUUUAGAGCUAGAAAUAGCAAGUUAAAAUAAGGCUAGUCCGUUAUCAACUUGAAAAAGUGGCACCGAGUCGGUGCUUUU .
OUT: 15.11
